Test system: U87-MG
Assay: Cell proliferation inhibition assay (MTT), U87-MG
Assay type: cell-based
Details: 72 hrs
pIC50: −log10 of the molar value.
Lab note: anything with pIC50 at or over 5 counts as 1; the rest go in 0.

Known results for compounds:
INSERT INTO assay_data (smiles, label_class) VALUES
  ('Nc1ncc(-c2nc(N3CCOCC3)nc3c(CN4CCN(C(=O)CO)CC4)csc23)cn1', 1),
  ('Cc1sc2c(-c3cnc(N)nc3)nc(N3CCOCC3)nc2c1CN1CCN(C(=O)CO)CC1', 1);

We now examine a further compound.
Asked: Could you tell me if the measured pIC50 of O=C(CO)N1CCN(Cc2csc3c(-c4cccc5[nH]ncc45)nc(N4CCOCC4)nc23)CC1 reaches 5 or more?
Given back: 0

Where do the numbers come from? From patent US9499561B2.
